Cited source for all entries: BindingDB's records for doi:10.1016/j.bmc.2009.10.004

Target: Beta-secretase 1 (Homo sapiens, UniProt P56817)
Sequence (P56817 whole entry): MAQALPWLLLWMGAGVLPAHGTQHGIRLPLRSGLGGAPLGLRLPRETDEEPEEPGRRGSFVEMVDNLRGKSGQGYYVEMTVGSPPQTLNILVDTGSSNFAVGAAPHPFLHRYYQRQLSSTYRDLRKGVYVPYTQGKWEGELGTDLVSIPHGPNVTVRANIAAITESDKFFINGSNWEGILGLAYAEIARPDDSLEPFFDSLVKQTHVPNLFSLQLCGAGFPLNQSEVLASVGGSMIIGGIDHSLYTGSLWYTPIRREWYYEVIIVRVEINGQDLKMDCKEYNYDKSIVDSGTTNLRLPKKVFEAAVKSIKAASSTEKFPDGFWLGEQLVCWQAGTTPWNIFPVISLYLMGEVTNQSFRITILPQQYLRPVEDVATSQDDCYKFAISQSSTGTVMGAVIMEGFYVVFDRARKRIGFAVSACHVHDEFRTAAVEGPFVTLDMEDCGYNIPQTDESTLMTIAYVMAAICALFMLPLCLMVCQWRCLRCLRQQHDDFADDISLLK
Experiment: Competitive inhibition of human recombinant BACE1 by Lineweaver-Burke plot analysis
pKi: −log10 of the molar value.
reported property: pKi

input smiles: COC(=O)CCc1c(O)cc2occc2c1OCC=C(C)C
value reported: 4.95
